Test: water solubility at 25° C.
Type: physicochemical
Conditions: aqueous
experimental_endpoint: solubility (µg/mL)
Field: numeric (µg/mL). Do not append units.

For reference, reported solubility for `CC(C)C[C@](C)(N)COc1ccc(-c2ccnc(C(F)F)c2)nc1C(F)F.Cl` stands at 2900

Every entry's value here was drawn from patent US12344596B2.
